Tested on: MCF7 breast
Protocol: NCI tumour cell line growth inhibition, 48 h
Measure: TGI

The following compounds have reported results that may help.
Compound: O=C(O)C1CCCCC1C(=O)Nn1cnnc1 (stereo not drawn)
TGI: > 100 µM
//
Compound: O=C1/C(=C/c2ccc(OC(=O)c3ccccc3)cc2)CCC/C1=C\c1ccc(OC(=O)c2ccccc2)cc1
TGI: > 100 µM
//
Compound: CN(C)CCCNc1ccc2c(=O)n(CCN(C)C)c(=O)n3c4ccccc4c(=O)c1c23
TGI: 0.565 µM

Below are 2 compounds. Give each one its TGI.
1. COc1cc(S(=O)(=O)Nc2nc(-c3ccc(N4C(=O)/C(=C/C=C/c5ccccc5)N=C4c4ccccc4)cc3)cs2)ccc1Cl
2. Cn1c(=O)n2n(c1=O)C(S(=O)(=O)c1ccccc1)C2 (stereo not drawn)

["> 100 µM", "> 100 µM"]

Give TGI for each listed item.
1. COc1cc(N2CCC(N3CCN(C)CC3)CC2)ccc1Nc1ncnc(Nc2ccccc2S(=O)(=O)C(C)C)n1
2. CCN(CC)c1ccc2cc(C(N)=S)c(=N)oc2c1
3. C=C(NC(=O)C(=C)NC(=O)c1csc(C2=NC3c4csc(n4)C4NC(=O)c5csc(n5)C(C(C)(O)C(C)O)NC(=O)C5CSC(=N5)C(=CC)NC(=O)C(C(C)O)NC(=O)c5csc(n5)C3(CC2)NC(=O)C(C)NC(=O)C(=C)NC(=O)C(C)NC(=O)C(C(C)CC)NC2C=Cc3c(C(C)O)cc(nc3C2O)C(=O)OC4C)n1)C(N)=O (stereo not drawn)

1. 23.5 µM
2. > 100 µM
3. > 100 µM
